tested target: human NEP (Homo sapiens, UniProt P08473)
Construct: purchased R&D Systems, Minneapolis, Minn; 1182-ZN
Sequence (P08473 whole entry): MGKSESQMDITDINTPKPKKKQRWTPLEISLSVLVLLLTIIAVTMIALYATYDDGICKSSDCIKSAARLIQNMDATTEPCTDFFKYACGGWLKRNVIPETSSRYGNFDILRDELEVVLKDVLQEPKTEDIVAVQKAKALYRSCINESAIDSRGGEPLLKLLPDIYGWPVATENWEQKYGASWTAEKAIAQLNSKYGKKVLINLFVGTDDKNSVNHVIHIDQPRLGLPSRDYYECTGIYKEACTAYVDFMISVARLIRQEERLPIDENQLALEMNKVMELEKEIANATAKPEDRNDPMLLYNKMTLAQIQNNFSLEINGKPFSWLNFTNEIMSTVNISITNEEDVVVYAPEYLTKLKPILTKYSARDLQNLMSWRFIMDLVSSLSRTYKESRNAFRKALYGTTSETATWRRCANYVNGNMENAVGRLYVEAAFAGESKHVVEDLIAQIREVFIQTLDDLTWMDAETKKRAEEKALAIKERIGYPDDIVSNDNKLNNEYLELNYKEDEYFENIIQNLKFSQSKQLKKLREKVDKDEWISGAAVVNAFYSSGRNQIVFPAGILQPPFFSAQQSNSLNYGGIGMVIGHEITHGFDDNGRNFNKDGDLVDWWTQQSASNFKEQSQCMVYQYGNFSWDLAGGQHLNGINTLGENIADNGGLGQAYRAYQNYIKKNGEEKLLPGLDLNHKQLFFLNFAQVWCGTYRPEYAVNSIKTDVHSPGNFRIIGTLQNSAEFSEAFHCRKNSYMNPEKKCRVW
assay procedure: In vitro enzyme inhibition assay at human NEP (fluorogenic peptide substrate)
Type: biochemical
condition parameters: recombinant human NEP; substrate Mca-D-Arg-Arg-Leu-Dap-(Dnp)-OH 10 μM; 37° C.; values given as ranges; read-out: pKi values at human NEP (converted)
Experimental: The inhibitory activities of compounds at human and rat neprilysin (EC 3.4.24.11; NEP) and human angiotensin converting enzyme (ACE) were determined using in vitro assays as described below. Recombinant human NEP and recombinant human ACE were obtained commercially (R&D Systems, Minneapolis, Minn., catalog numbers 1182-ZN and 929-ZN, respectively). […]
assay metric: Ki

Completed entries (count: 4):
O=C(N[C@H](Cc1ccccc1Cl)[C@@H](O)C(=O)O)c1cc(C(=O)O)n(Cc2ccc(Cl)c(OC(F)(F)F)c2)n1 [Example 2-13] = 12.6 to 100 nM
O=C(N[C@H](Cc1ccccc1)[C@@H](O)C(=O)O)c1cc([N+](=O)[O-])[nH]n1 [Example 8-11] = 12.6 to 100 nM
O=C(N[C@H](Cc1ccccc1Cl)[C@@H](O)C(=O)O)c1cc(C(=O)O)n(Cc2c(F)ccc(Cl)c2F)n1 [Example 2-14] = 1.26 to 10 nM
O=C(N[C@H](Cc1ccccc1)[C@@H](O)C(=O)O)c1ccn(Cc2ccc(Cl)cc2)n1 [Example 8-16] = 12.6 to 100 nM

Reported human NEP (Homo sapiens, UniProt P08473) Ki for item CC(Cn1nc(C(=O)N[C@@H](CC(=O)O)Cc2ccccc2Cl)cc1C(=O)O)C(=O)O (some centres unmarked) [Example 11-10] was 12.6 to 100 nM

Reported human NEP (Homo sapiens, UniProt P08473) Ki for item COc1ccc(Cn2nc(C(=O)N[C@H](Cc3ccccc3)[C@@H](O)C(=O)O)cc2C2CC2)c(F)c1F [Example 8-21] was 1.26 to 10 nM

Reported human NEP (Homo sapiens, UniProt P08473) Ki for item CCCCc1cc(C(=O)N[C@H](Cc2ccccc2Cl)[C@@H](O)C(=O)O)nn1Cc1c(F)c(F)c(OC)c(F)c1F [Example 2-69] was ≤ 1 nM

Reported human NEP (Homo sapiens, UniProt P08473) Ki for item COc1ccc(Cn2nc(C(=O)N[C@H](Cc3ccccc3C(F)(F)F)[C@@H](O)C(=O)O)cc2C(=O)O)cc1 [Example 5] was 1.26 to 10 nM

Reported human NEP (Homo sapiens, UniProt P08473) Ki for item O=C(N[C@H](Cc1ccccc1Cl)[C@@H](O)C(=O)O)c1cc(-c2ccc(F)cc2)n[nH]1 [Example 3-3] was 12.6 to 100 nM

Reported human NEP (Homo sapiens, UniProt P08473) Ki for item COc1ccc(Cn2nc(C(=O)N[C@H](Cc3ccccc3Cl)[C@@H](O)C(=O)O)cc2C(=O)O)cc1 [Example 2-21] was ≤ 1 nM

Reported human NEP (Homo sapiens, UniProt P08473) Ki for item Cc1ccccc1C[C@H](CC(=O)O)NC(=O)c1cc(C(=O)O)[nH]n1 [Example 13] was 12.6 to 100 nM

Reported human NEP (Homo sapiens, UniProt P08473) Ki for item O=C(N[C@H](Cc1ccccc1Cl)[C@@H](O)C(=O)O)c1cc(C(=O)N2CCOCC2)[nH]n1 [Example 2-55] was 12.6 to 100 nM

Reported human NEP (Homo sapiens, UniProt P08473) Ki for item CC(=O)c1cc(C(=O)N[C@H](Cc2ccccc2Cl)[C@@H](O)C(=O)O)[nH]n1 [Example 3-5] was 12.6 to 100 nM

Reported human NEP (Homo sapiens, UniProt P08473) Ki for item O=C(N[C@H](Cc1ccccc1C(F)(F)F)[C@@H](O)C(=O)O)c1cc(C(=O)N2CC[C@@H](O)C2)[nH]n1 [Example 6-10] was 1.26 to 10 nM

Reported human NEP (Homo sapiens, UniProt P08473) Ki for item O=C(N[C@H](Cc1ccccc1Cl)[C@@H](O)C(=O)O)c1cc(-c2ccco2)[nH]n1 [Example 2-52] was 12.6 to 100 nM

Reported human NEP (Homo sapiens, UniProt P08473) Ki for item O=C(N[C@H](Cc1ccccc1Cl)[C@@H](O)C(=O)O)c1cc(C(=O)O)n(Cc2ccc(Br)cc2)n1 [Example 2-41] was ≤ 1 nM

Reported human NEP (Homo sapiens, UniProt P08473) Ki for item O=C(O)C[C@@H](Cc1ccccc1Cl)NC(=O)c1cc(C(=O)O)n(Cc2cccc(Cl)c2)n1 [Example 10] was 1.26 to 10 nM

Reported human NEP (Homo sapiens, UniProt P08473) Ki for item O=C(N[C@H](Cc1ccccc1Cl)[C@@H](O)C(=O)O)c1cc(C(=O)O)n(Cc2ccc(F)cc2)n1 [Example 2-20] was 1.26 to 10 nM

Reported human NEP (Homo sapiens, UniProt P08473) Ki for item O=C(N[C@H](Cc1ccccc1Cl)[C@@H](O)C(=O)O)c1cc(-c2ccc(-c3ccccc3)cc2)[nH]n1 [Example 2-49] was 12.6 to 100 nM

Reported human NEP (Homo sapiens, UniProt P08473) Ki for item O=C(O)Cn1nc(C(=O)N[C@H](Cc2ccccc2Cl)[C@@H](O)C(=O)O)cc1-c1ccc(Cl)cc1Cl [Example 2-74] was 12.6 to 100 nM

Reported human NEP (Homo sapiens, UniProt P08473) Ki for item O=C(O)C[C@@H](Cc1ccccc1Cl)NC(=O)c1cc(C(=O)O)n(Cc2cccc(F)c2)n1 [Example 11-6] was 12.6 to 100 nM

Reported human NEP (Homo sapiens, UniProt P08473) Ki for item CC(c1ccccc1)n1nc(C(=O)N[C@H](Cc2ccccc2Cl)[C@@H](O)C(=O)O)cc1C(=O)O (some centres unmarked) [Example 2-60] was 12.6 to 100 nM

Reported human NEP (Homo sapiens, UniProt P08473) Ki for item O=C(N[C@H](Cc1ccccc1C(F)(F)F)[C@@H](O)C(=O)O)c1cc(C(=O)NCCc2c[nH]cn2)[nH]n1 [Example 6-4] was 12.6 to 100 nM

Reported human NEP (Homo sapiens, UniProt P08473) Ki for item COc1c(F)cc(Cn2nc(C(=O)N[C@H](Cc3ccccc3Cl)[C@@H](O)C(=O)O)cc2C(=O)O)cc1Cl [Example 2-17] was 1.26 to 10 nM

Reported human NEP (Homo sapiens, UniProt P08473) Ki for item O=C(N[C@H](Cc1ccccc1Cl)[C@@H](O)C(=O)O)c1cc(-c2ccccc2Cl)n(-c2ccc(Cl)cc2Cl)n1 [Example 2-64] was 12.6 to 100 nM
